- tested-system: Heat shock protein HSP90 (Homo sapiens, UniProt P07900+P08238)
- measurement-notes: Ability to degrade Her2 in MCF7 cells
- Format: functional, cell-based
# IC50 per entry
Report the value in nM with no unit label.

Endpoint output: IC50 of `CCCCn1c(Sc2nc3cccc(C)c3s2)nc2c(N)ncnc21` . Value?
300

Endpoint output: IC50 of `CCn1c(Sc2nc3cccc(Cl)c3s2)nc2c(N)ncnc21` . Value?
200

Endpoint output: IC50 of `CCCCn1c(Sc2nc3cccc(F)c3s2)nc2c(N)ncnc21` . Value?
200

Origin of measurements: ChEMBL document CHEMBL1146181
